Where do these numbers come from? They come from PubChem BioAssay AID1259407.

Test system: CCRIS mutagenicity, Ames/micronucleus/aberration tests
METHOD_NOTES: CCRIS mutagenicity studies
CONDITION_PARAMETERS: Test System: AMES SALMONELLA TYPHIMURIUM; Strain/Indicator: TA100; Metabolic Activation: RAT, LIVER, S-9, AROCLOR 1254; Method: STANDARD PLATE
The source made the active and inactive calls. The rule behind the calls is not given here.
Give one outcome, nothing more. List: active, inactive

Prompt line: Assay result, entry Cl/C=C(\Cl)c1c(Cl)c(Cl)c(Cl)c(Cl)c1Cl — outcome?
Response line: inactive

Prompt line: Also need CC(C)C[C@@H]1NC(=O)CNC1=O , thanks.
Response line: inactive

Prompt line: Also need c1ccc2c(c1)cc1c3c2ccc2cccc(c23)C1 , thanks.
Response line: active

Prompt line: Also need O=C/C=C/C=C\c1ccc([N+](=O)[O-])cc1 , thanks.
Response line: active

Prompt line: Also need Cc1cc(Cl)ccc1N , thanks.
Response line: inactive

Prompt line: Also need S=C([S-])NCCNC(=S)[S-].[Zn+2] , thanks.
Response line: inactive

Prompt line: Also need CN(C)c1ccc([C@H]2C[C@]3(C)[C@@H](CC[C@]3(O)CCCO)[C@@H]3CCC4=CC(=O)CCC4=C32)cc1 , thanks.
Response line: inactive

Prompt line: Also need Nc1ccc(N)c2c1C(=O)c1cccc([N+](=O)[O-])c1C2=O , thanks.
Response line: inactive

Prompt line: Also need c1ccc2cc3ccccc3cc2c1 , thanks.
Response line: inactive

Prompt line: Also need CCC(CCC(C)=O)COC(=O)c1ccccc1C(=O)O (stereo not drawn) , thanks.
Response line: inactive

Prompt line: Also need CCC(CCCC(=O)O)COC(=O)c1ccccc1C(=O)O (stereo not drawn) , thanks.
Response line: inactive

Prompt line: Also need COP(=O)(SC)SC , thanks.
Response line: inactive

Prompt line: Also need O=C1c2cccc(O)c2C(=O)c2c(O)cccc21 , thanks.
Response line: inactive

Prompt line: Also need C=Cc1ccc(O)c(OC)c1 , thanks.
Response line: inactive

Prompt line: Also need CN1C[C@H](C(=O)N[C@]2(C)O[C@@]3(O)[C@@H]4CCCN4C(=O)[C@H](Cc4ccccc4)N3C2=O)C=C2c3cccc4[nH]cc(c34)C[C@H]21 , thanks.
Response line: inactive

Prompt line: Also need C#C[C@]1(O)CC[C@H]2[C@@H]3CCC4=CC(=O)CC[C@@H]4[C@H]3CC[C@@]21CC , thanks.
Response line: inactive

Prompt line: Also need C=C(C)c1ccc(C)c2ccc(CO)c-2c1 , thanks.
Response line: active

Prompt line: Also need O=C1CCC(=O)N1c1cc(Cl)cc(Cl)c1 , thanks.
Response line: inactive

Prompt line: Also need CCCCOCC=O , thanks.
Response line: inactive

Prompt line: Also need Cc1c(C)c([N+](=O)[O-])c(C(C)(C)C)c([N+](=O)[O-])c1C , thanks.
Response line: inactive

Prompt line: Also need C[C@H](CCC(=O)O)[C@H]1CC[C@H]2[C@@H]3[C@H](O)C[C@@H]4C[C@H](O)CC[C@]4(C)[C@H]3C[C@H](O)[C@]12C , thanks.
Response line: inactive

Prompt line: Also need ClC(Cl)=C(Cl)C(Cl)=C(Cl)Cl , thanks.
Response line: active

Prompt line: Also need O=C1CC(c2ccc(O)cc2)Oc2cc(O)cc(O)c21 (stereo not drawn) , thanks.
Response line: inactive

Prompt line: Also need CNCCCN1c2ccccc2CCc2ccccc21 , thanks.
Response line: inactive

Prompt line: Also need CC(=O)C(Cl)(Cl)Cl , thanks.
Response line: active

Prompt line: Also need Nc1ccc(/C=C\c2ccc([N+](=O)[O-])cc2)cc1 , thanks.
Response line: active

Prompt line: Also need O=NN1CCSC1 , thanks.
Response line: active

Prompt line: Also need CC1CS(=O)(=O)CCN1/N=C/c1ccc([N+](=O)[O-])o1 (stereo not drawn) , thanks.
Response line: active

Prompt line: Also need CSC[C@H](NC(=O)COc1cccc2cnccc12)C(=O)N[C@@H](Cc1ccccc1)[C@H](O)C(=O)N1CSC[C@H]1C(=O)NC(C)(C)C , thanks.
Response line: inactive

Prompt line: Also need CN1CCC(=C2c3ccccc3C=Cc3ccccc32)CC1 , thanks.
Response line: inactive

Prompt line: Also need Nc1c2ccccc2nc2ccccc12 , thanks.
Response line: inactive

Prompt line: Also need CCOCC1CO1 (stereo not drawn) , thanks.
Response line: active

Prompt line: Also need CC(=O)OC(C)=O , thanks.
Response line: inactive

Prompt line: Also need Cl/C=C\CCl , thanks.
Response line: active

Prompt line: Also need c1ccc2cc3c(ccc4ccncc43)cc2c1 , thanks.
Response line: active

Prompt line: Also need CCCCCCCCC=O , thanks.
Response line: inactive

Prompt line: Also need O=c1[nH]c(=O)n([C@H]2C[C@H](O)[C@@H](CO)O2)cc1CCCl , thanks.
Response line: inactive

Prompt line: Also need ClCc1cccnc1 , thanks.
Response line: active

Prompt line: Also need Nc1ccn([C@H]2CC[C@@H](CO)O2)c(=O)n1 , thanks.
Response line: inactive

Prompt line: Also need O=C(O)/C(Cl)=C(/C(=O)O)C(Cl)Cl , thanks.
Response line: inactive

Prompt line: Also need Cc1ccc2c(C)c3ccccc3c(C)c2c1 , thanks.
Response line: active

Prompt line: Also need O=C(O)C1OC1C(=O)O (stereo not drawn) , thanks.
Response line: inactive

Prompt line: Also need N=c1c2ncn(C(c3ccccc3)c3ccccc3)c2ncn1O , thanks.
Response line: inactive

Prompt line: Also need CCN(CC)C(=S)SSC[C@H](NC(C)=O)C(=O)O , thanks.
Response line: inactive

Prompt line: Also need c1ccc2c(c1)CCCC2 , thanks.
Response line: inactive

Prompt line: Also need NC(=O)/N=N/C(N)=O , thanks.
Response line: active

Prompt line: Also need Nc1ccc2nc3ccccn3c2n1 , thanks.
Response line: active

Prompt line: Also need O=[N+]([O-])O , thanks.
Response line: inactive

Prompt line: Also need CN(C)c1ccc(N=Nc2cccnc2)cc1 , thanks.
Response line: inactive

Prompt line: Also need Clc1c2ccccc2cc2ccccc12 , thanks.
Response line: active

Prompt line: Also need COc1cc(O)c2c(c1)C(=O)c1cc(C)cc(O)c1C2=O , thanks.
Response line: inactive

Prompt line: Also need Cc1ccc2c(C)c3ccc4c(c3nc2c1)C=C[C@H](O)[C@H]4O , thanks.
Response line: active

Prompt line: Also need Nc1cccc2c1C(=O)c1cccc(N)c1C2=O , thanks.
Response line: inactive

---

System: CCRIS mutagenicity, Ames/micronucleus/aberration tests
METHOD_NOTES: CCRIS mutagenicity studies
CONDITION_PARAMETERS: Test System: AMES SALMONELLA TYPHIMURIUM; Strain/Indicator: TA1537; Metabolic Activation: RAT, LIVER, S-9; Method: PREINCUBATION
Calls of active or inactive are those of the source. No rule for the calls is given here.
Give one outcome, nothing more. List: label 1 for active, label 0 for inactive

Prompt line: Assay result, entry O=C1c2cccc(O)c2C(=O)c2c(O)cccc21 — outcome?
Response line: label 1

Prompt line: Also need Cc1cc(O)c2c(c1)C(=O)c1cccc(O)c1C2=O , thanks.
Response line: label 1

Prompt line: Also need O=C1c2cccc(O)c2C(=O)c2cccc(O)c21 , thanks.
Response line: label 1

Prompt line: Also need COc1ccc(C(=O)N2CCN(c3ccc4c(c3)CCC(=O)N4)CC2)cc1OC , thanks.
Response line: label 0

---

System: CCRIS mutagenicity, Ames/micronucleus/aberration tests
METHOD_NOTES: CCRIS mutagenicity studies
CONDITION_PARAMETERS: Test System: AMES SALMONELLA TYPHIMURIUM; Strain/Indicator: TA100; Metabolic Activation: NONE; Method: STANDARD PLATE
Active and inactive are the calls of the source. The rule behind the calls is not given here.
PROPERTY_MEASURED: mutagenic call

Guide cases for mutagenic call, answers given:
[[record]]
molecule = "CC(C)(C)c1ccc(-c2ccc(N=O)cc2)cc1"
property_measured = "mutagenic call"
result = "active; positive"

[[record]]
molecule = "O=NN(CC(=O)O)CC(=O)O"
property_measured = "mutagenic call"
result = "inactive; negative"

[[record]]
molecule = "COc1nsc2cc(OCC3CO3)ccc12 (stereo not drawn)"
property_measured = "mutagenic call"
result = "active; positive"

[[record]]
molecule = "Nc1ccc([N+](=O)[O-])cc1N"
property_measured = "mutagenic call"
result = "active; positive"

[[record]]
molecule = "Nc1c(N=Nc2ccc(-c3ccc(NN=C4C=CC(=O)C=C4)cc3)cc2)c(S(=O)(=O)O)cc2c1C(=O)/C(=N/Nc1ccccc1)C(S(=O)(=O)O)=C2"
property_measured = "mutagenic call"
result = "inactive; negative"

[[record]]
molecule = "O=C1CCC(=O)N1c1cc(Cl)cc(Cl)c1"
property_measured = "mutagenic call"
result = "inactive; negative"

[[record]]
molecule = "CO[C@@H]1[C@H](O)C[C@@H](O[C@@H]2C[C@H](Oc3cc4cc5c(c(O)c4c(O)c3C)C(=O)[C@@H](O[C@H]3C[C@@H](O[C@H]4C[C@@H](O[C@H]6C[C@](C)(O)[C@@H](OC(C)=O)[C@H](C)O6)[C@H](O)[C@@H](C)O4)[C@H](O)[C@@H](C)O3)[C@H]([C@H](OC)C(=O)[C@@H](O)[C@@H](C)O)C5)O[C@H](C)[C@@H]2OC(C)=O)O[C@@H]1C"
property_measured = "mutagenic call"
result = "inactive; negative"

[[record]]
molecule = "C[C@]12C/C(=C/O)C(=O)C[C@@H]1CC[C@@H]1[C@@H]2CC[C@@]2(C)[C@H]1CC[C@]2(C)O"
property_measured = "mutagenic call"
result = "inactive; negative"


Prompt line: Data request, read-out mutagenic call, for COc1cc(O)c2c(c1)C(=O)c1cc(C)cc(O)c1C2=O
Response line: inactive; negative

Prompt line: Also need O=C(O)CC(O)(CC(=O)O)C(=O)O , thanks.
Response line: inactive; negative

Prompt line: Also need CN(C)C(=O)Cl , thanks.
Response line: active; positive

Prompt line: Also need C=C.CC(N)c1ccccc1.[Cl-].[Cl-].[Pt+2] (stereo not drawn) , thanks.
Response line: inactive; negative

Prompt line: Also need C1CC2OC2CCC2OC12 (stereo not drawn) , thanks.
Response line: inactive; negative
